molecular target: recombinant human DPPI (Cathepsin C) (Homo sapiens (Human), UniProt P53634); test: Inhibition of human DPPI (Cathepsin C); details: substrate Gly-Arg-AMC
Sequence (P53634 231-394): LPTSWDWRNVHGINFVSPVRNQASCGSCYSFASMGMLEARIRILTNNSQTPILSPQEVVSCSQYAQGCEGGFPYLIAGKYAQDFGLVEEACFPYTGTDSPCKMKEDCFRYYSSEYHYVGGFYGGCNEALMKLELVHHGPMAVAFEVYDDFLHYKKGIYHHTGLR
Sequence (P53634 395-463): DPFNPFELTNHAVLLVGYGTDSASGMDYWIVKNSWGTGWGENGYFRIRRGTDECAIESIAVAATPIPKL
Sequence (P53634 25-134): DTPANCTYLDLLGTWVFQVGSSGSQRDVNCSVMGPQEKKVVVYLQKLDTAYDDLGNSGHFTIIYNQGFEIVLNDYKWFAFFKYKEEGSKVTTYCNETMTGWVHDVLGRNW
measureName: pIC50
Scale for pIC50: -log10 of concentration given in mol/L; no unit attached.

{"compound": "N#C[C@H](Cc1ccc(-n2cc(-c3ccc4[nH]ccc4c3)nn2)cc1F)NC(=O)[C@H]1N[C@@H]2CC[C@H]1C2", "experimentalSystem": "recombinant human DPPI (Cathepsin C) (Homo sapiens (Human), UniProt P53634)", "pIC50": 8.40}
{"compound": "CN(C)C(=O)c1cnn(-c2ccc(C[C@@H](C#N)NC(=O)[C@H]3N[C@@H]4CC[C@H]3C4)c(F)c2)c1", "experimentalSystem": "recombinant human DPPI (Cathepsin C) (Homo sapiens (Human), UniProt P53634)", "pIC50": 7.41}
{"compound": "CN(C)CCCN1C(=O)Cc2ccc(-c3ccc(C[C@@H](C#N)NC(=O)[C@H]4N[C@@H]5CC[C@H]4C5)c(F)c3)cc21", "experimentalSystem": "recombinant human DPPI (Cathepsin C) (Homo sapiens (Human), UniProt P53634)", "pIC50": 8.52}
{"compound": "CN1CCN(C(=O)c2cc(-c3ccc(C[C@@H](C#N)NC(=O)[C@H]4N[C@@H]5CC[C@H]4C5)c(F)c3)cs2)CC1", "experimentalSystem": "recombinant human DPPI (Cathepsin C) (Homo sapiens (Human), UniProt P53634)", "pIC50": 9.10}
{"compound": "N#C[C@H](Cc1ccc(-c2ccc3c(c2)C(=O)NC3)cc1F)NC(=O)[C@H]1N[C@@H]2CC[C@H]1C2", "experimentalSystem": "recombinant human DPPI (Cathepsin C) (Homo sapiens (Human), UniProt P53634)", "pIC50": 7.72}

Asked: I would be grateful if you could share the reported pIC50 for COC(=O)c1ccc(-c2ccc(C[C@@H](C#N)NC(=O)[C@H]3N[C@@H]4CC[C@H]3C4)c(F)c2)o1 .
Given back: 8.20

Asked: I would be grateful if you could share the reported pIC50 for N#C[C@H](Cc1ccc(-c2cc(C(=O)N3CCn4nccc4C3)co2)cc1F)NC(=O)[C@H]1N[C@@H]2CC[C@H]1C2 .
Given back: 8.21

Asked: I would be grateful if you could share the reported pIC50 for CN1CCN(S(=O)(=O)c2ccc(-c3ccc(C[C@@H](C#N)NC(=O)[C@H]4N[C@@H]5CC[C@H]4C5)c(F)c3)cc2)CC1 .
Given back: 9.10
